target: TNF-alpha (Homo sapiens, UniProt P01375 P01375:77-233); assay: SPR; range given for ATK001 and ATK007 together; TNF-alpha immobilized on CM5, HBS; details: tags: recombinant human TNF-alpha (Sigma-Aldrich; biotinylated for SELEX); chain copies: 3
Sequence (P01375 77-233, one chain of several): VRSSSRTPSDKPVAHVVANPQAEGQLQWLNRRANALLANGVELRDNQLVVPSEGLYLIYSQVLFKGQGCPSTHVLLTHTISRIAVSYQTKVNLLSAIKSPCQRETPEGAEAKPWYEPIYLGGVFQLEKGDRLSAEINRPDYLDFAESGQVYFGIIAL
Give measured Kd for each item. Keep answers brief.
One number for each entry, in nM.

{"BINDER": "ATK007 (ssRNA, 2'-F on all C and U) RNA: GCGGAAGCGUGCUGGGCCCGGCUUGCAGGUCGCCGAAAUGACCGCACACAUAACCCAGAGGUCGAU", "Kd / nM": 5.29}

Now take the following binder into account.
q: Quote Kd reported for ATK001 (ssRNA, 2'-F on all C and U) RNA: GGGAGGACGAUGCGGCCACUGGCUAGGAACUCGAGUACUGGGUGGCAGACGACUCGCCCGA please.
a: 5.29
